# Test system: Tobacco mosaic virus
# procedureDetails: Antiviral activity against TMV assessed as protection effect against viral infection at 500 mg/L
# Type: functional, organism-based
Below: a set of entries, each annotated with reported Activity.
Respond with the bare value in %.

# compound, displayUnit, testValue
measured = [
    ("CCCCCC(=O)O/N=C/C1C(C)=NN(c2ccc(Cl)cc2)C1Sc1ccc(F)cc1 (stereo not drawn)", "%", 31),
]

Look up Activity for this compound: C/C=C/C=C/C(=O)O/N=C/C1C(C)=NN(c2ccc(Cl)cc2)C1Sc1ccc(C)cc1 (stereo not drawn)
50

Look up Activity for this compound: CC1=NN(c2ccc(C)cc2)C(Sc2ccc(F)cc2)C1/C=N/OC(=O)c1ccccc1 (stereo not drawn)
48.4
